Target: M^Pro-eGFP fusion protein in 293T cells (Severe acute respiratory syndrome coronavirus 2, UniProt P0DTD1)
Experiment: cell-based
Set-up: species or system SARS-CoV-2
Details: read-out: cellular EC50
pEC50: −log10 of the molar value.
For each record, write down the corresponding pEC50.

Value lookup for pEC50; key = O=C[C@H](C[C@@H]1CCNC1=O)NC(=O)C1CC2(CCCCC2)CN1C(=O)OCc1ccccc1 (some centres unmarked)
> 7.00

Value lookup for pEC50; key = O=C[C@H](C[C@@H]1CCNC1=O)NC(=O)C1CC2(CCCC2)CN1C(=O)OCc1ccccc1 (some centres unmarked)
> 7.00

* * *

Target: UniProt P0DTD1
Assay: In vitro M^Pro enzymatic inhibition with fluorogenic substrate Sub3
Type: biochemical
Conditions: 20 nM M^Pro, 10 μM Sub3, 30 min preincubation; read-out: Enzymatic IC50
READOUT_LABEL: IC50 (nM)
I only need the number, in nM, no unit after it.

Value lookup for IC50; key = N#C[C@H](C[C@@H]1CCNC1=O)NC(=O)C1CC2(CCCC2)CN1C(=O)OCc1ccccc1 (stereo partly drawn)
2200

Value lookup for IC50; key = `CC1(C)[C@@H]2[C@@H](C(=O)N[C@H](C=O)C[C@@H]3CCNC3=O)N(C(=O)COC3CCCCC3)C[C@@H]21`
25

Value lookup for IC50; key = `CC(C)(C)C[C@H](NC(=O)c1cc2ccccc2[nH]1)C(=O)N[C@H](C=O)C[C@@H]1CCNC1=O`
29

Value lookup for IC50; key = CC1(C)[C@@H]2[C@@H](C(=O)N[C@H](C=O)C[C@@H]3CCNC3=O)N(C(=O)COc3ccc(Cl)cc3Cl)C[C@@H]21 [MI-14, reference compound]
28

Value lookup for IC50; key = COc1cccc2[nH]c(C(=O)N3CC4(CCCC4)CC3C(=O)N[C@H](C=O)C[C@@H]3CCNC3=O)cc12 (stereo partly drawn)
1500

Value lookup for IC50; key = `O=C[C@H](C[C@@H]1CCNC1=O)NC(=O)[C@@H]1C[C@@H](C2CCCCC2)CN1C(=O)OCc1ccccc1`
510

Value lookup for IC50; key = `O=C[C@H](C[C@@H]1CCNC1=O)NC(=O)[C@H](CC1CCCCC1)NC(=O)OCc1ccccc1`
56

Value lookup for IC50; key = O=C[C@H](C[C@@H]1CCNC1=O)NC(=O)C1CC2(CCCC2)CN1C(=O)OCc1ccccc1 (stereo partly drawn)
22

Value lookup for IC50; key = `CC1(C)[C@@H]2[C@@H](C(=O)N[C@H](C=O)C[C@@H]3CCNC3=O)N(C(=O)CCC3CCCCC3)C[C@@H]21`
41

Value lookup for IC50; key = `CC1(C)[C@@H]2[C@@H](C(=O)N[C@H](C=O)C[C@@H]3CCNC3=O)N(C(=O)CNc3ccc(Cl)cc3)C[C@@H]21`
990

Value lookup for IC50; key = N#C[C@H](C[C@@H]1CCNC1=O)NC(=O)C1CC2(CCCC2)CN1C(=O)OCc1cccc(Cl)c1 (stereo partly drawn)
3600

Value lookup for IC50; key = O=C[C@H](C[C@@H]1CCNC1=O)NC(=O)C1CC2(CCCCC2)CN1C(=O)OCc1ccccc1 (stereo partly drawn)
49

Value lookup for IC50; key = COc1cccc2[nH]c(C(=O)N3CC4(CCCC4)CC3C(=O)N[C@H](C#N)C[C@@H]3CCCNC3=O)cc12 (stereo partly drawn)
6000

Value lookup for IC50; key = N#C[C@H](C[C@@H]1CCNC1=O)NC(=O)C1CC2(CCCCC2)CN1C(=O)OCc1ccccc1 (stereo partly drawn)
1400

Value lookup for IC50; key = `COc1cccc2[nH]c(C(=O)N[C@@H](CC(C)(C)C)C(=O)N[C@H](C=O)C[C@@H]3CCNC3=O)cc12`
74

* * *

Target: M^Pro-eGFP fusion protein in 293T cells (Severe acute respiratory syndrome coronavirus 2, UniProt P0DTD1)
Test: cell-based
Design: species or system SARS-CoV-2
Settings: read-out: Cellular EC50
pEC50: −log10 of the molar value.
Label scheme for pEC50: lower than 6 is Not met, 6 and above is Met.

Threshold query (pEC50 >= 6) on O=C[C@H](C[C@@H]1CCNC1=O)NC(=O)[C@@H]1[C@H]2CCC[C@H]2CN1C(=O)COc1ccc(Cl)c(Cl)c1 [MI-31, reference compound]
Not met

Threshold query (pEC50 >= 6) on `CC1(C)[C@@H]2[C@@H](C(=O)N[C@H](C=O)C[C@@H]3CCNC3=O)N(C(=O)CCC3CCCCC3)C[C@@H]21`
Met

Threshold query (pEC50 >= 6) on `O=C[C@H](C[C@@H]1CCNC1=O)NC(=O)[C@H](CC1CCCCC1)NC(=O)OCc1cccc(Cl)c1`
Met

Threshold query (pEC50 >= 6) on `CC1(C)[C@@H]2[C@@H](C(=O)N[C@H](C=O)C[C@@H]3CCNC3=O)N(C(=O)COC3CCCCC3)C[C@@H]21`
Not met

Threshold query (pEC50 >= 6) on O=C[C@H](C[C@@H]1CCNC1=O)NC(=O)C1CC2(CCCC2)CN1C(=O)OCc1ccccc1 (stereo partly drawn)
Met

Threshold query (pEC50 >= 6) on `CC(C)(C)C[C@H](NC(=O)c1cc2ccccc2[nH]1)C(=O)N[C@H](C=O)C[C@@H]1CCNC1=O`
Not met

Threshold query (pEC50 >= 6) on `CC(=O)Oc1cccc(COC(=O)N[C@@H](CC2CCCCC2)C(=O)N[C@H](C=O)C[C@@H]2CCNC2=O)c1`
Not met

Threshold query (pEC50 >= 6) on `O=C[C@H](C[C@@H]1CCNC1=O)NC(=O)[C@@H]1CC2(CC2)CN1C(=O)COc1ccc(Cl)cc1Cl`
Not met

Threshold query (pEC50 >= 6) on CC1(C)[C@@H]2[C@@H](C(=O)N[C@H](C=O)C[C@@H]3CCNC3=O)N(C(=O)COc3ccc(Cl)cc3Cl)C[C@@H]21 [MI-14, reference compound]
Met

Threshold query (pEC50 >= 6) on `O=C[C@H](C[C@@H]1CCNC1=O)NC(=O)[C@@H]1CC2(CCC2)CN1C(=O)OCc1ccccc1`
Met

Threshold query (pEC50 >= 6) on O=C[C@H](C[C@@H]1CCNC1=O)NC(=O)C1CC2(CCCCC2)CN1C(=O)OCc1ccccc1 (stereo partly drawn)
Met

* * *

Target: SARS-CoV-2 main protease (M^Pro) (Severe acute respiratory syndrome coronavirus 2, UniProt P0DTD1)
Test: In vitro M^Pro enzymatic inhibition with fluorogenic substrate Sub3
Assay type: biochemical
Conditions: read-out: IC50 (M^Pro enzymatic inhibition)
For each record, write down the corresponding IC50.

Value lookup for IC50; key = CC1(C)[C@@H]2[C@@H](C(=O)N[C@H](C=O)C[C@@H]3CCNC3=O)N(C(=O)COc3ccc(Cl)cc3Cl)C[C@@H]21 [MI-14, reference compound]
≤ 50 nM

Value lookup for IC50; key = O=C[C@H](C[C@@H]1CCNC1=O)NC(=O)[C@@H]1[C@H]2CCC[C@H]2CN1C(=O)COc1ccc(Cl)c(Cl)c1 [MI-31, reference compound]
≤ 50 nM

* * *

Target: SARS-CoV-2 main protease (M^Pro) (Severe acute respiratory syndrome coronavirus 2, UniProt P0DTD1)
Assay: In vitro M^Pro enzymatic inhibition with fluorogenic substrate Sub3
Assay type: biochemical
Conditions: 20 nM M^Pro, 10 μM Sub3, 30 min preincubation; read-out: Enzymatic IC50
READOUT_LABEL: IC50 (nM)
I only need the number, in nM, no unit after it.

Value lookup for IC50; key = `CC(=O)Oc1cccc(COC(=O)N[C@@H](CC2CCCCC2)C(=O)N[C@H](C=O)C[C@@H]2CCNC2=O)c1`
98

Value lookup for IC50; key = `O=C[C@H](C[C@@H]1CCNC1=O)NC(=O)[C@@H]1CC2(CC2)CN1C(=O)OCc1ccccc1`
25

Value lookup for IC50; key = `O=C[C@H](C[C@@H]1CCNC1=O)NC(=O)[C@@H]1CC2(CCC2)CN1C(=O)OCc1ccccc1`
30

Value lookup for IC50; key = `O=C[C@H](C[C@@H]1CCNC1=O)NC(=O)[C@H](CC1CCCCC1)NC(=O)OCc1cccc(Cl)c1`
110

Value lookup for IC50; key = `CC(C)(C)O[C@@H]1C[C@@H](C(=O)N[C@H](C=O)C[C@@H]2CCNC2=O)N(C(=O)OCc2ccccc2)C1`
560

Value lookup for IC50; key = `CC(C)(C)C[C@H](NC(=O)OCc1ccccc1)C(=O)N[C@H](C=O)C[C@@H]1CCNC1=O`
53

Value lookup for IC50; key = `O=C[C@H](C[C@@H]1CCNC1=O)NC(=O)[C@@H]1CC2(CC2)CN1C(=O)COc1ccc(Cl)cc1Cl`
39

Value lookup for IC50; key = O=C[C@H](C[C@@H]1CCNC1=O)NC(=O)[C@@H]1[C@H]2CCC[C@H]2CN1C(=O)COc1ccc(Cl)c(Cl)c1 [MI-31, reference compound]
42
